target: Gal4S6S(b1-4)GlcNAc; assay: glycan array binding signal (z-score within array); higher = stronger binding; details: glycan notation: IUPAC condensed, linker removed
This is one part of a sample in which the strongest signals are shown more often than they occur.
measurement.type: glycan array binding signal (z-score)
Just the number, please.

Return glycan array binding signal (z-score) for the following binder: SJCP1531 (Schistosoma japonicum) (protein) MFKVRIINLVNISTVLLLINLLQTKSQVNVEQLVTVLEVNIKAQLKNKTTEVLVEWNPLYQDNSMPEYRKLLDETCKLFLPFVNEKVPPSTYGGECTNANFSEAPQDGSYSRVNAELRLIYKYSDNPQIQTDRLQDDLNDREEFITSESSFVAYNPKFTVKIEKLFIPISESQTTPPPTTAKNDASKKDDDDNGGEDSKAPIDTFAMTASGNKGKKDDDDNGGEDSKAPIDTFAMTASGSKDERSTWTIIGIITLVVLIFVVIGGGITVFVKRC
-0.722

Reference source: the supplement of paper PMC8728848
